# MEASUREMENT_TARGET: human TPO receptor (hTPOR) (Homo sapiens, UniProt P40238)
# Construct: expressed in transfected cells; host or cells: BaF-B03 (murine IL-3 dependent cell line)
# Sequence (P40238 26-635): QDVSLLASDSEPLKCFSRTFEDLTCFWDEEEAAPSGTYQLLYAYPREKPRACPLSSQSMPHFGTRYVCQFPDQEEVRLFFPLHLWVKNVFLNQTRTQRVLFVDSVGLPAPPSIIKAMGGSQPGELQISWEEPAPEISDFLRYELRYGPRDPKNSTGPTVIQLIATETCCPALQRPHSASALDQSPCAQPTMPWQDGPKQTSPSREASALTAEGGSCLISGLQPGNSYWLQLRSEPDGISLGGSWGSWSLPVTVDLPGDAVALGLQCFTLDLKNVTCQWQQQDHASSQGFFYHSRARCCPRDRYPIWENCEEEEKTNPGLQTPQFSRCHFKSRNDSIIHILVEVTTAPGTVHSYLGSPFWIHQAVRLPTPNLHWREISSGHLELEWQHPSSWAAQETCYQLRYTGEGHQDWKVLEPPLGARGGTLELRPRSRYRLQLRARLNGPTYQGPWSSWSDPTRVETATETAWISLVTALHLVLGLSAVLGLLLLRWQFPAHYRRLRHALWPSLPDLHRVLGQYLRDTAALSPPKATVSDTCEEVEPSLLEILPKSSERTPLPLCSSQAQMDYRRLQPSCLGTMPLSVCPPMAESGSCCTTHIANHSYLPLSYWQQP
# TEST_NAME: Thrombopoietic activity: proliferation of TPO dependent BaF/hTPOR cells (WST-1, absorbance at 450 nm)
# Assay type: cell-based
# EXPERIMENTAL_CONDITIONS: 20 h + 4 h WST-1, ED50 = half concentration of the concentration showing the maximum thrombopoietic activity, Table 1
In this section, each of the molecules is paired with its reported EC50.

>  <MOLECULE>
CCCCC(OCCC)c1cccc(-c2csc(NC(=O)c3cc(Cl)c(C=C(C)C(=O)O)c(Cl)c3)n2)c1F (stereo not shown)

>  <EC50>
0.63 nM

$$$$
>  <MOLECULE>
CCCCCCCCCC(OC)c1cccc(-c2csc(NC(=O)c3cc(F)c(C=C(C)C(=O)O)c(F)c3)n2)c1F (stereo not shown)

>  <EC50>
1.6 nM

$$$$
>  <MOLECULE>
CC(=Cc1c(F)cc(C(=O)Nc2nc3c(s2)CCc2c(CCCOCC(C)(C)C)cccc2-3)cc1F)C(=O)O

>  <EC50>
1.04 nM

$$$$
>  <MOLECULE>
CCCCCCCCC(OC)c1cccc(-c2csc(NC(=O)c3cc(Cl)c(C=C(C)C(=O)O)c(Cl)c3)n2)c1F (stereo not shown)

>  <EC50>
0.78 nM

$$$$
>  <MOLECULE>
C/C(=C\c1c(F)cc(C(=O)Nc2nc3c(s2)COc2c(CCC(C)(C)C)cccc2-3)cc1F)C(=O)O

>  <EC50>
12.5 nM

$$$$
>  <MOLECULE>
CCC(CC)COCc1cccc(-c2csc(NC(=O)c3cc(Cl)c(/C=C(\OC)C(=O)O)c(Cl)c3)n2)c1OC

>  <EC50>
12.6 nM

$$$$
>  <MOLECULE>
CCCOC(c1cccc(-c2csc(NC(=O)c3cc(Cl)c(/C=C(\C)C(=O)O)c(Cl)c3)n2)c1OC)C1CCCCC1 (stereo not shown)

>  <EC50>
2.86 nM

$$$$
